Cited source: patent US9890185B2

System: PBMCs
Assay: LPS-induced IL-8 release in PBMC cells (assay b)
Type: cell-based, human
Details: Homo sapiens, PBMC; LPS-stimulated PBMCs; read-out: IC50 Values for Inhibition of Cytokine Release, PBMCs IL-8
Description: Peripheral blood mononuclear cells (PBMCs) from healthy subjects are separated from whole blood using a density gradient (Lymphoprep, Axis-Shield Healthcare). […] The supernatant is harvested for determination of IL-8 and TNFα concentrations by sandwich ELISA (Duo-set, R&D systems) and read on the fluorescence microplate reader (Varioskan® Flash, ThermoFisher Scientific). […]
measuredEndpoint: log10 of IC50 (log10 of the value in nM)

molecule | log10 of IC50
COc1c(CS(C)(=O)=O)cc(C(C)(C)C)cc1NC(=O)Nc1ccc(Oc2ccnc(Nc3ccccc3)c2)c2ccccc12 | 0.79
COc1c(NC(=O)Nc2ccc(Oc3ccnc(Nc4ccccc4)c3)c3ccccc23)cc(C(C)(C)C)cc1C(=O)NCCN1CCCC1 | 0.99
COc1c(CC(N)=O)cc(C(C)(C)C)cc1NC(=O)Nc1ccc(Oc2ccnc(Nc3ccccc3)c2)c2ccccc12 | 0.81
COc1c(NC(=O)Nc2ccc(Oc3ccnc(Nc4cccnc4)c3)c3ccccc23)cc(C(C)(C)C)cc1P(C)(C)=O | 0.57
CC(C)(C)c1cc(NC(=O)Nc2ccc(Oc3ccnc(Nc4ccccc4)c3)c3ccccc23)c(O)c(P(C)(C)=O)c1 | 1.50
COc1cc(Nc2cc(Oc3ccc(NC(=O)Nc4cc(C(C)(C)C)cc(P(C)(C)=O)c4OC)c4ccccc34)ccn2)cc(C(=O)N(C)CCN2CCN(C)CC2)c1 | 0.85
COc1cccc(Nc2cc(Oc3ccc(NC(=O)Nc4cc(C(C)(C)C)cc(P(C)(C)=O)c4OC)c4ccccc34)ccn2)c1 | 0.43
COc1cc(Nc2cc(Oc3ccc(NC(=O)Nc4cc(C(C)(C)C)cc([S+](C)[O-])c4OC)c4ccccc34)ccn2)ccc1C(=O)O (stereo not shown) | 0.72
COc1cc(Nc2cc(Oc3ccc(NC(=O)Nc4cc(C(C)(C)C)cc([S+](C)[O-])c4OC)c4ccccc34)ccn2)cc(OC)c1 (stereo not shown) | 0.43
COc1cc(Nc2nccc(Oc3ccc(NC(=O)Nc4cc(C(C)(C)C)cc([S+](C)[O-])c4OC)c4ccccc34)n2)ccc1C(=O)O (stereo not shown) | 1.18
COCCOCCOCCOc1cc(Nc2nccc(Oc3ccc(NC(=O)Nc4cc(C(C)(C)C)cc(OS(C)(=O)=O)c4OC)c4ccccc34)n2)cc(OC)c1 | 0.94
COc1cccc(Nc2cc(Oc3ccc(NC(=O)Nc4cc(C(C)(C)C)cc(C(=O)NCCN5CCOCC5)c4OC)c4ccccc34)ccn2)c1 | 0.40
COc1cc(Nc2cc(Oc3ccc(NC(=O)Nc4cc(C(C)(C)C)cc(P(C)(C)=O)c4OC)c4ccccc34)ccn2)cc(S(=O)(=O)N(C)CCN2CCOCC2)c1 | 0.20

* * *

biological target: c-Src (Homo sapiens (Human)); experiment: c-Src enzyme inhibition (FRET, Z-LYTE); format: biochemical
Sequence (P12931 whole entry, looked up): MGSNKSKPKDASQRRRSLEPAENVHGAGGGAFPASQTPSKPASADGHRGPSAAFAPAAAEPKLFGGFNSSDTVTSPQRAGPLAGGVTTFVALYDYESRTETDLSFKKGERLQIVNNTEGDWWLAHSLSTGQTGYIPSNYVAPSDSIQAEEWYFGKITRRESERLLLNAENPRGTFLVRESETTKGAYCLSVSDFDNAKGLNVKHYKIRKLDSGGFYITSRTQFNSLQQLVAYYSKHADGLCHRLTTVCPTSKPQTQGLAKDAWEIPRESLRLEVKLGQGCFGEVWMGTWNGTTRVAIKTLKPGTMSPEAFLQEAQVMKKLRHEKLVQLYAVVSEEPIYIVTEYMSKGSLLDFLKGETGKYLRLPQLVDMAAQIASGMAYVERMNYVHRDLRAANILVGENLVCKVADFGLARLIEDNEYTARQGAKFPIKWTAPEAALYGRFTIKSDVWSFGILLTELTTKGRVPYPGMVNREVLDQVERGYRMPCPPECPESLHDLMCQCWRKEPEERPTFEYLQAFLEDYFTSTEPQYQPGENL
Decision: IC50 beneath 100 nM gives fulfilled; IC50 meeting or exceeding 100 nM gives not fulfilled.

compound | qualitativeLabel
COc1c(CC(N)=O)cc(C(C)(C)C)cc1NC(=O)Nc1ccc(Oc2ccnc(Nc3ccccc3)c2)c2ccccc12 | not fulfilled
COCCOCCOCCNC(=O)c1cc(Nc2cc(Oc3ccc(NC(=O)Nc4cc(C(C)(C)C)cc(C(=O)NCCN5CCOCC5)c4OC)c4ccccc34)ccn2)cc(OC)c1 | fulfilled
COc1c(NC(=O)Nc2ccc(Oc3ccnc(Nc4ccccc4)c3)c3ccccc23)cc(C(C)(C)C)cc1C(=O)NCCN1CCOCC1 | not fulfilled
COc1c(NC(=O)Nc2ccc(Oc3ccnc(NCc4ccccn4)c3)c3ccccc23)cc(C(C)(C)C)cc1P(C)(C)=O [38(e)] | not fulfilled
COc1cc(Nc2cc(Oc3ccc(NC(=O)Nc4cc(C(C)(C)C)cc([S+](C)[O-])c4OC)c4ccccc34)ccn2)cc(C(=O)NCCN2CCOCC2)c1 (stereo not shown) | fulfilled
COCCOCCOCCOc1cc(Nc2nccc(Oc3ccc(NC(=O)Nc4cc(C(C)(C)C)cc(CC(N)=O)c4OC)c4ccccc34)n2)cc(OC)c1 | fulfilled
COCCOCCOCCOc1cc(Nc2cc(Oc3ccc(NC(=O)Nc4cc(C(C)(C)C)cc(CP(C)(C)=O)c4OC)c4ccccc34)ccn2)cc(OC)c1 | fulfilled
COc1c(CC(N)=O)cc(C(C)(C)C)cc1NC(=O)Nc1ccc(Oc2ccnc(Nc3cccc(OS(C)(=O)=O)c3)c2)c2ccccc12 [38(r)] | fulfilled
COc1cc(Nc2cc(Oc3ccc(NC(=O)Nc4cc(C(C)(C)C)cc(P(C)(C)=O)c4OC)c4ccccc34)ccn2)cc(S(=O)(=O)N(C)CCCN2CCOCC2)c1 | not fulfilled
COc1cc(Nc2cc(Oc3ccc(NC(=O)Nc4cc(C(C)(C)C)cc(C[S+](C)[O-])c4OC)c4ccccc34)ccn2)cc(C(=O)NCCN2CCOCC2)c1 (stereo not shown) | fulfilled
